# targetSystem: µOR (Homo sapiens, UniProt P35372)
# Sequence (P35372 whole entry): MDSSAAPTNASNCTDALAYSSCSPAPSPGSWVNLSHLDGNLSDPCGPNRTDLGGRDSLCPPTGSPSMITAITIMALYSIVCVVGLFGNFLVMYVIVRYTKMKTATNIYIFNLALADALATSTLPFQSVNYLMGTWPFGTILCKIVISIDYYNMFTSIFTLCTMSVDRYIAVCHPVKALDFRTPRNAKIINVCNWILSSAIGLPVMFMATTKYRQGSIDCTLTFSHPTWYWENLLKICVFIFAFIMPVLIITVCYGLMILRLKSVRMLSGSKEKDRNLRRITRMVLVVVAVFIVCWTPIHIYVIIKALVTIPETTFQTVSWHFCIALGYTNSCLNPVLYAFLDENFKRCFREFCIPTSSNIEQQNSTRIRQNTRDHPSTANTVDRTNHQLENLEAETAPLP
# runDescription: cell-based
# Type: cell-based
Kindly supply the reported pEC50 values for the records listed here.
Answers are plain numbers, as −log10 of the molar value.

Cc1cccc(C[C@H](NC(=O)CNC(=O)CNC(=O)[C@@H](N)Cc2ccc(O)cc2)C(=O)N[C@@H](CC(C)C)C(=O)O)c1    6.73
CC(C)C[C@H](NC(=O)[C@H](Cc1cccc(Cl)c1)NC(=O)CNC(=O)CNC(=O)[C@@H](N)Cc1ccc(O)cc1)C(=O)O    7.17
CC(C)C[C@H](NC(=O)[C@H](Cc1cccc(I)c1)NC(=O)CNC(=O)CNC(=O)[C@@H](N)Cc1ccc(O)cc1)C(=O)O    7.33

Please find the next molecule below.
Asked: Looking for the measured pEC50 of `COc1cccc(C[C@H](NC(=O)CNC(=O)CNC(=O)[C@@H](N)Cc2ccc(O)cc2)C(=O)N[C@@H](CC(C)C)C(=O)O)c1` , can you help?
Given back: 6.23
